Observed pIC50, system Stromelysin-1 (Homo sapiens, UniProt P08254).
Interpret pIC50 as the negative base-10 log of the concentration measured in mol/L.

Worked cases, answers included:
| Mol Smiles | Target System | pIC50 |
| --- | --- | --- |
| COCCN1CCC(C(=O)NO)(S(=O)(=O)c2ccc(Oc3ccc(OC(F)(F)F)cc3)cc2)CC1 | Stromelysin-1 (Homo sapiens, UniProt P08254) | 7.54 |
| C#CCN1CCC(C(=O)NO)(S(=O)(=O)c2ccc(Oc3ccc4c(c3)OCO4)cc2)CC1 | Stromelysin-1 (Homo sapiens, UniProt P08254) | 7.74 |
| O=C(NO)C1(S(=O)(=O)c2ccc(Oc3ccc(-c4ccccc4)cc3)cc2)CCOCC1 | Stromelysin-1 (Homo sapiens, UniProt P08254) | 7.30 |
| O=C(NO)C1(S(=O)(=O)c2ccc(Oc3ccc(C(F)(F)F)cc3)cc2)CCNCC1 | Stromelysin-1 (Homo sapiens, UniProt P08254) | 7.19 |
| O=C(NO)C1(S(=O)(=O)c2ccc(Oc3cccc(C(F)(F)F)c3)cc2)CCOCC1 | Stromelysin-1 (Homo sapiens, UniProt P08254) | 7.26 |

Please turn your attention to the following entry.
So what's the measured pIC50 for this one? `O=C(NO)C1(S(=O)(=O)c2ccc(Oc3ccccc3)cc2)CCOCC1`
8.15
